- STUDY_SYSTEM: G/T mismatch-specific thymine DNA glycosylase (Homo sapiens) (UniProt Q13569);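 further: human TDG cleavage of quenched duplex DNA oligonucleotides coupled to APE1, strand release read as fluorescence at 594 nm, inhibition of TDG activity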
- Sequence (Q13569 whole entry): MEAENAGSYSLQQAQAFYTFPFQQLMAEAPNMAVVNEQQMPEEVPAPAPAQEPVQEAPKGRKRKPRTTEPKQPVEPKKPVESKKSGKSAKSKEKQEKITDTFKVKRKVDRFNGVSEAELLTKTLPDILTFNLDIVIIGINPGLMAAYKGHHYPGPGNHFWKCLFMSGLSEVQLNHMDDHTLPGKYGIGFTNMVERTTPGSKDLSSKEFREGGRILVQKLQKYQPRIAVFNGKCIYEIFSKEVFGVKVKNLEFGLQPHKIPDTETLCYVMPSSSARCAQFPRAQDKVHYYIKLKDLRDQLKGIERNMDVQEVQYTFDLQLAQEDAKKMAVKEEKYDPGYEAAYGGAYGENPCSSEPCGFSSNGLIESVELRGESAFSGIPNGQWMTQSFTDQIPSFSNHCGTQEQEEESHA
- SETUP_CONDITIONS: Compound Concentration 10.0 uM, Hit No
- Description: Inhibition of TDG by quantifying inhibition of TDG-mediated cleavage and dissociation of quenched duplex DNA oligonucleotides, measured as fluorescence at 594 nm. To generate a functional strand incision and increase turn-over this assay is coupled to APE1.
METRIC: inhibition

COMPOUND: Cc1ccccc1C(=O)Nc1ccc(C(=O)N2CCCC(N(C)C)c3ccccc32)cc1 (centres undefined)
METRIC: inhibition
TEST_RESULT: 18.4%
//
COMPOUND: CN1CCN(C(=O)c2ccc3cc2OCCOCCNc2ccn4ncc-3c4n2)CC1
METRIC: inhibition
TEST_RESULT: 38.5%
//
COMPOUND: Cc1cnc(-c2cc(Cl)ccc2F)cc1-n1c(=O)n(CC(N)=O)c2ccccc21
METRIC: inhibition
TEST_RESULT: 23.2%
//
COMPOUND: COC(=O)N1CCN(C(=O)Cc2ccc(Cl)c(Cl)c2)C(CN2CCCC2)C1 (centres undefined)
METRIC: inhibition
TEST_RESULT: -7.07%
//
COMPOUND: O=C(Nc1ccc(S(=O)(=O)Nc2nccs2)cc1)C(c1ccccc1)c1ccccc1
METRIC: inhibition
TEST_RESULT: 52.5%
//
COMPOUND: CCCc1nc2c(C)cc(-c3nc4ccccc4n3C)cc2n1Cc1ccc(-c2ccccc2C(=O)O)cc1
METRIC: inhibition
TEST_RESULT: 18.9%
//
COMPOUND: CC(C)C[C@@H](C(=O)N[C@@H](Cc1ccc(OCc2ccccc2)cc1)C(=O)NC(C)(C)C)N(C)Cc1ccc(C(C)(C)C)cc1
METRIC: inhibition
TEST_RESULT: 11.4%
//
COMPOUND: CCCCc1nc(Cl)c(CO)n1Cc1ccc(-c2ccccc2-c2nnn[nH]2)cc1
METRIC: inhibition
TEST_RESULT: 8.31%
//
COMPOUND: CCC(=O)N[C@H]1CC[C@@H](C(=O)N(C)c2ccc(-c3nc4ccccc4o3)cc2)C1
METRIC: inhibition
TEST_RESULT: 41.7%
//
COMPOUND: CC[C@@H]1C(=O)N(C)c2cnc(Nc3ccc(C(=O)NC4CCN(C)CC4)cc3OC)nc2N1C1CCCC1
METRIC: inhibition
TEST_RESULT: 69.8%
//
COMPOUND: Cn1c(C2(NC(=O)c3ccc(NCC4CCCCC4)nc3)CCC2)nc2ccc(/C=C/C(=O)O)cc21
METRIC: inhibition
TEST_RESULT: 57.9%
//
COMPOUND: CC(=O)Nc1ncc(CN2CCC[C@H](Cc3cc(C)nc(C)c3)C2)s1
METRIC: inhibition
TEST_RESULT: 48.4%
//
COMPOUND: CC(C)c1ccc(CC(=O)N[C@H](C)c2ccc(OCC(F)(F)F)cn2)cc1
METRIC: inhibition
TEST_RESULT: -9.7%
//
COMPOUND: Cc1ccccc1C(=O)Nc1ccc(C(=O)N2CCCC(O)c3cc(Cl)ccc32)c(C)c1 (centres undefined)
METRIC: inhibition
TEST_RESULT: 18.4%
//
COMPOUND: C=CCN1C[C@H](C(=O)N(CCCN(C)C)C(=O)NCC)C[C@@H]2c3cccc4[nH]cc(c34)C[C@H]21
METRIC: inhibition
TEST_RESULT: -7.89%
//
COMPOUND: CC(COc1ccccc1)N(CCCl)Cc1ccccc1 (centres undefined)
METRIC: inhibition
TEST_RESULT: 9.17%
//
COMPOUND: CN(C)c1ncnc(-c2ccc3nc(Nc4cc(CN5CCN(C(=O)CC(F)(F)F)CC5)ccn4)[nH]c3c2)c1Cl
METRIC: inhibition
TEST_RESULT: 65%
//
COMPOUND: CC(C)c1cc(Br)c(NC(=O)Nc2cccnc2)c(Br)c1
METRIC: inhibition
TEST_RESULT: 19.7%
//
COMPOUND: CC[C@@H](Nc1c(C#N)c(-c2ccc(-c3cccc(C)c3F)cc2)nc2cnccc12)C(=O)O
METRIC: inhibition
TEST_RESULT: 49.5%

Value source: ChEMBL document CHEMBL5665443
